- Test system: NCI-H1734
- experiment summary: relative viability (nuclei count vs DMSO), 5 days (fraction); higher = more cells survive
- study conditions: first compound 500 µM
property label: relative viability
Give bare numbers.

Please look at the items below and tell me relative viability for each one, in order.
1. O=C(O)CCCCC(CCSCc1ccccc1)SCc1ccccc1 (stereo not drawn) [CPI-613] + CC(C)C[C@H](NC(=O)[C@H](Cc1ccccc1)NC(=O)c1cnccn1)B(O)O [Bortezomib] (partner 0.002 µM)
2. O=C(O)CCCCC(CCSCc1ccccc1)SCc1ccccc1 (stereo not drawn) [CPI-613] + Nc1ncn([C@H]2C[C@H](O)[C@@H](CO)O2)c(=O)n1 [Decitabine] (partner 2 µM)
3. O=C(O)CCCCC(CCSCc1ccccc1)SCc1ccccc1 (stereo not drawn) [CPI-613] + N=C(N)NC(=N)NCCc1ccccc1 [Phenformin] (partner 250 µM)

0.101
0.111
0.0834
